The reported measurements were obtained from PubChem BioAssay AID179.

system: CEM cells HIV-1 protection, formazan growth assay; assay: NCI AIDS Antiviral Assay
pEC50: −log10 of the molar value.
# pEC50 listing for each entry below
Measure name: pEC50

>>> readout_value("OC1C2[C@@H](O)CCN2CC[C@H]1O (stereo partly specified)")
"< 3.12"
>>> readout_value("COc1ccc(NC(=O)C(/C=N\\C(=S)NNC(C)=O)=C(\\C)O)cc1")
"< 3.70"
>>> readout_value("O=C(O)c1ccc(NNC(=O)c2cccc3c(=O)c4ccccc4[nH]c23)cc1")
"< 3.70"
>>> readout_value("O=C(/C=C/c1ccc2c(c1)OCO2)NCc1ccco1")
"< 3.70"
>>> readout_value("N#C/C(=C/c1cccnc1)C(=O)c1ccccc1")
"< 3.40"
>>> readout_value("COc1cc(C2(C)OC(=O)c3ccccc32)c(OC)c2ccccc12 (stereo unspecified)")
"< 4.35"
